- target: P. berghei-luciferase sporozoites
- experimental_details: microbe, parasite or virus in culture
- Assay type: cell-based, Plasmodium berghei
- condition: read-out: Liver stage 48h EC50
measurement_name: EC50 (µM)
Answers are plain numbers, in µM.

For record CN(C)c1ccc2c(c1)Sc1cc(N(C)C)ccc1N2 [Leuco methylthioninium] the listed EC50 is 3.92

* * *

- target: P. berghei-luciferase sporozoites
- experimental_details: microbe, parasite or virus in culture
- Type: cell-based, Plasmodium berghei
- condition: liver-stage parasites, 48 hours in culture; read-out: Liver stage 48h EC50
Where a name gives a salt, the structure may show the parent alone.
measurement_name: EC50

Reference set, count: 10
Cc1cc(-c2cc(OC(=O)c3ccccc3)ccc2Cl)cc2nnc(Nc3ccc(OCCN4CCCC4)cc3)nc12 [TG-100801]: 1410 nM
CCN(CC)CC(O)CNc1c2ccc(Cl)cc2nc2ccc(OC)cc12 (centres unmarked) [Acranil]: 312 nM
CCc1ccc(OCc2ccccc2C(=O)Nc2ccc3nc(C)cc(N)c3c2)cc1 [JTC-801]: 429 nM
COc1cc2nc(-c3ccc(N4CCN(C)CC4)cc3)nc(NCCN3CCOCC3)c2cc1OC [CPG-52364]: 1100 nM
CCCC1(CCC)CCC2(CCN(CCCN(CC)CC)C2)CC1 [Atiprimod dimaleate]: 7330 nM
CC(C)CCNC(=O)C(CC(C)C)NC(=O)C1OC1C(=O)O (centres unmarked) [EP-475]: > 10000 nM
CCCCCCCCN=c1ccn(CCCCCCCC)cc1 [Pirtenidine]: 838 nM
COc1ccc(C)cc1NC(=O)Nc1nc2ccc(Nc3ncnc4cc(OCCCN5CCN(C)CC5)c(OC)cc34)cc2s1 [Compound 4SC-203]: 3330 nM
O=C(CC1c2ccccc2C(=O)N1c1ccc2ccc(Cl)nc2n1)N1CCC2(CC1)OCCO2 (centres unmarked) [Pazinaclone]: > 10000 nM
O=C(Nc1ccccc1)N[C@@H]1C(=O)N(CC23CC4CC(CC(C4)C2)C3)c2ccccc2N(c2ccccc2)C1=O [GV 150013]: > 10000 nM

Hi, could you look up EC50 for each item in my list?
1. Cc1ncc(NC(=O)c2ccc(CN3CCN(C)CC3)c(C(F)(F)F)c2)cc1Nc1nccc(-c2cccnc2)n1 [Flumatinib mesylate]
2. CCCCCN=C(N)Nc1nc(-c2cnc(C)[nH]2)cs1 [CP 66948]
3. CN(C)CCOc1ccc2[nH]c(C(=O)NCC#Cc3ccc(C(=O)NO)cc3)cc2c1 [CRA-026440]
4. CCOC(=O)[C@@H]1O[C@H]1C(=O)NC(CC(C)C)C(=O)N1CCN(Cc2ccc(OC)c(OC)c2OC)CC1 (some centres unmarked) [NCO 700]
5. Cn1/c(=N\C#N)n(-c2ccc(C(C)(C)C#N)nc2)c2c3cc(-c4cnc(N)c(C(F)(F)F)c4)ccc3ncc21 [Panulisib]
6. O=C1c2ccccc2C(=O)c2sc(-c3ccco3)nc21 [INO-5042]
7. CCNCc1cncc(-c2ccc3[nH]nc(-c4nc5c(F)cc(F)cc5[nH]4)c3c2)c1C [AG-024322]

Reply:
> 10000 nM
> 10000 nM
2490 nM
> 10000 nM
77 nM
2070 nM
2990 nM

* * *

Kindly supply the reported CC50 at 72 h values for the records listed here.
- experimental_details: Mammalian cell cytotoxicity assay, HEK293T (CellTiter-Glo, 72 h)
- condition: human, HEK293T cells
Answers are plain numbers, in nM.

COc1ncc(-c2ccc3nccc(-c4ccnnc4)c3c2)cc1NS(=O)(=O)c1ccc(F)cc1F [omipalisib, reference compound]: 46
COC(=O)[C@]12CCC(C)(C)C[C@H]1[C@H]1C(=O)C=C3[C@@]4(C)C=C(C#N)C(=O)C(C)(C)[C@@H]4CC[C@@]3(C)[C@]1(C)CC2: 208

Let us examine a further case.
For record "C#Cc1cccc(Nc2ncnc3cc(OC)c(OCCCCCCC(=O)NO)cc23)c1" the listed CC50 at 72 h is 408

* * *

Kindly supply the reported log10 of CC50 values for the records listed here.
- Test system: HEK293T cells
- experimental_details: Mammalian cell cytotoxicity assay, HEK293T (CellTiter-Glo, 72 h)
- condition: read-out: HEK CC50; HEK293T cells
Counter-ions that a name gives are not always drawn.
Heads up: the numbers are on a log10 scale; they represent CC50 in nM.

Reference set, count: 2
Cc1[nH]c2ccccc2c1CCNCc1ccc(/C=C/C(=O)NO)cc1 [Panobinostat Lactate]: 1.89
COc1cc2nc(-c3ccc(N4CCN(C)CC4)cc3)nc(NCCN3CCOCC3)c2cc1OC: 3.21

Hi, could you look up log10 of CC50 for each item in my list?
1. Cc1nc(N2CCN(Cc3ccc(F)cc3)C2=O)sc1C(=O)NCc1cccnc1
2. Cc1cc(-c2cc(O)ccc2Cl)cc2nnc(Nc3ccc(OCCN4CCCC4)cc3)nc12 [TG 100572 (Hydrochloride)]
3. CCCCCCCCN=c1ccn(CCCCCCCC)cc1

Reply:
[1.76, 3.24, 2.45]

Hi, could you look up log10 of CC50 for each item in my list?
1. CCN(CC)CC(O)CNc1c2ccc(Cl)cc2nc2ccc(OC)cc12 (stereo not shown)
2. CCCC1(CCC)CCC2(CCN(CCCN(CC)CC)C2)CC1 [Atiprimod dimaleate]
3. CN(C)c1ccc2c(c1)Sc1cc(N(C)C)ccc1N2

Reply:
1: 3.16; 2: 3.24; 3: 3.54

* * *

- experimental_details: Mammalian cell cytotoxicity assay, HEK293T (CellTiter-Glo, 72 h)
- condition: human, HEK293T cells
Each entry falls in a class defined on CC50 at 72 h; the bands are lo: < 200 nM; mid: ≥ 200 nM and < 2000 nM; hi: ≥ 2000 nM

Cn1cc(CNCC2CCN(c3ncc(C(=O)NO)cn3)CC2)c2ccccc21 [Quisinostat, reference compound]: lo
O=C1c2c(O)ccc(O)c2C(=O)c2c(NCCNCCO)ccc(NCCNCCO)c21: mid
CO[C@H]1C(=O)[C@]2(C)[C@@H](OC)C[C@H]3OC[C@@]3(OC(C)=O)[C@H]2[C@H](OC(=O)c2ccccc2)[C@]2(O)C[C@H](OC(=O)[C@H](O)[C@@H](NC(=O)OC(C)(C)C)c3ccccc3)C(C)=C1C2(C)C [Cabazitaxel, reference compound]: hi
CCN(CC)CC[n+]1ccc2c(C)c3[nH]c4ccc(O)cc4c3c(C)c2c1 [Datelliptium Chloride]: hi
CC1=C(c2ccc(O)cc2)[C@H](c2ccc(OCCN3CCCCC3)cc2)Oc2cc(O)ccc21: hi
CCN(CC)CCN(Cc1ccc(-c2ccc(C(F)(F)F)cc2)cc1)C(=O)Cn1c(SCc2ccc(F)cc2)nc(=O)c2c1CCC2: mid

Task item: Bin? "CC(C)C[C@H](NC(=O)[C@H](Cc1ccccc1)NC(=O)c1cnccn1)B(O)O"
Reply: lo

Task item: Bin? "OC1(c2ccc(Cl)c(C(F)(F)F)c2)CCN(CCCC(c2ccc(F)cc2)c2ccc(F)cc2)CC1"
Reply: mid

* * *

Kindly supply the reported pEC50 values for the records listed here.
- Tested on: P. falciparum Dd2-HLH
- experimental_details: microbe, parasite or virus in culture
- Assay type: cell-based, Plasmodium falciparum
- condition: P. falciparum blood-stage parasites, 72 hours in culture; read-out: Blood stage 72h EC50
One number for each entry, as −log10 of the molar value.

Reference set, count: 5
CCCC1(CCC)CCC2(CCN(CCCN(CC)CC)C2)CC1 [Atiprimod dimaleate]: 6.37
COc1ccc(C)cc1NC(=O)Nc1nc2ccc(Nc3ncnc4cc(OCCCN5CCN(C)CC5)c(OC)cc34)cc2s1: 6.14
O=C(CC1c2ccccc2C(=O)N1c1ccc2ccc(Cl)nc2n1)N1CCC2(CC1)OCCO2 (stereo not shown): 6.37
CCCCCCCCN=c1ccn(CCCCCCCC)cc1: 6.21
Cc1nc(N2CCN(Cc3ccc(F)cc3)C2=O)sc1C(=O)NCc1cccnc1: 6.48

Hi, could you look up pEC50 for each item in my list?
1. CCOC(=O)[C@@H]1O[C@H]1C(=O)NC(CC(C)C)C(=O)N1CCN(Cc2ccc(OC)c(OC)c2OC)CC1 (stereo partly shown)
2. O=C(Nc1ccccc1)N[C@@H]1C(=O)N(CC23CC4CC(CC(C4)C2)C3)c2ccccc2N(c2ccccc2)C1=O
3. Cc1[nH]c2ccccc2c1CCNCc1ccc(/C=C/C(=O)NO)cc1 [Panobinostat Lactate]
4. CCN(CC)CC(O)CNc1c2ccc(Cl)cc2nc2ccc(OC)cc12 (stereo not shown)
5. CN[C@@H]1C[C@H]2O[C@@](C)([C@@H]1OC)n1c3ccccc3c3c4c(c5c6ccccc6n2c5c31)C(=O)N[C@H]4O
6. CCc1ccc(OCc2ccccc2C(=O)Nc2ccc3nc(C)cc(N)c3c2)cc1
7. C=C/C=C/C[C@@H](C)[C@@H](O)[C@H]1C(=O)N[C@@H](CC)C(=O)N(C)CC(=O)N(C)[C@@H](CC(C)C)C(=O)N[C@@H](C(C)C)C(=O)N(C)[C@@H](CC(C)C)C(=O)N[C@@H](C)C(=O)N[C@H](C)C(=O)N(C)[C@@H](CC(C)C)C(=O)N(C)[C@@H](CC(C)C)C(=O)N(C)[C@@H](C(C)C)C(=O)N1C
8. CN(C)CCOc1ccc2[nH]c(C(=O)NCC#Cc3ccc(C(=O)NO)cc3)cc2c1

Reply:
1: 7.48; 2: 6.60; 3: 7.29; 4: 7.70; 5: 6.31; 6: 6.20; 7: 6.60; 8: 7.20

Hi, could you look up pEC50 for each item in my list?
1. CC(C)CCNC(=O)C(CC(C)C)NC(=O)C1OC1C(=O)O (stereo not shown)
2. COc1ccc(C[C@H]2NC[C@H](O)[C@H]2OC(C)=O)cc1
3. Cn1/c(=N\C#N)n(-c2ccc(C(C)(C)C#N)nc2)c2c3cc(-c4cnc(N)c(C(F)(F)F)c4)ccc3ncc21

Reply:
6.50
7.21
6.80
